pIC50: −log10 of the molar value.
Compiled literature pIC50, tested on ROCK2 (Homo sapiens, UniProt O75116).
Sequence (O75116 whole entry, species assumed): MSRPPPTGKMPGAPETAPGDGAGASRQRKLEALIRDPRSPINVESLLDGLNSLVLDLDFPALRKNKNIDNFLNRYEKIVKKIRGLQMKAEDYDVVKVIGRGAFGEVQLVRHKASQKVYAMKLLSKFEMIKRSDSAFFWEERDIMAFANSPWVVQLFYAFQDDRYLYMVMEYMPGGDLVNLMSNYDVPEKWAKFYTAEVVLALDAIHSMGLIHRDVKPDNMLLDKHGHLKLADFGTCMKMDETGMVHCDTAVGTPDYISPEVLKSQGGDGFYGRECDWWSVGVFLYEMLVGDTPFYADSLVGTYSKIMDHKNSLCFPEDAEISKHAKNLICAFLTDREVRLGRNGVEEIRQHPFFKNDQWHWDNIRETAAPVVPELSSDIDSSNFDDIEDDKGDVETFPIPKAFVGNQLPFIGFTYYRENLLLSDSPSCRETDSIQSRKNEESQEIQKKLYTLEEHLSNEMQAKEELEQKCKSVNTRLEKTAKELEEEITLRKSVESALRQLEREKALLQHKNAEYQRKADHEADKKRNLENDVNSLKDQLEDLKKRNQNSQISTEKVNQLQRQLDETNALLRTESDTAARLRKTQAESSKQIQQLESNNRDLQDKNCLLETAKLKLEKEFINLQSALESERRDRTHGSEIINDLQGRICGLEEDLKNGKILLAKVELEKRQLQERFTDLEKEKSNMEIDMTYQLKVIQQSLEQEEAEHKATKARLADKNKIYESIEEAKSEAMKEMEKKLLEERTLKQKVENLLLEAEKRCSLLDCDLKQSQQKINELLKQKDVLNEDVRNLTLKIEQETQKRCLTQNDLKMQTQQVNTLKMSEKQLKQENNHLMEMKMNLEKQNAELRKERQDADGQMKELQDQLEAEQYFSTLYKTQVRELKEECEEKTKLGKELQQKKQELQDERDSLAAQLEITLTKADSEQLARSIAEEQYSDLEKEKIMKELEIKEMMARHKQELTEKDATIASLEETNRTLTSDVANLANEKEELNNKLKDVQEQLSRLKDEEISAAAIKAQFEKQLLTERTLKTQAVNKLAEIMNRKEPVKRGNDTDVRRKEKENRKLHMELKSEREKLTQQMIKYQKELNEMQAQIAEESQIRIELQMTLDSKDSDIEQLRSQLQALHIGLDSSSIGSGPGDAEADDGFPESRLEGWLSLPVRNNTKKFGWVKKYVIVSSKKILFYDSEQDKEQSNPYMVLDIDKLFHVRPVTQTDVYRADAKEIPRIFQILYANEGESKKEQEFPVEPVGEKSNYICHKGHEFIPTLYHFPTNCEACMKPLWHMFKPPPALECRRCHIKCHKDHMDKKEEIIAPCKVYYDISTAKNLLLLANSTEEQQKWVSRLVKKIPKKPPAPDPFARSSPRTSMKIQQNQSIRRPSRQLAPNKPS
MEASURED ENDPOINT: pIC50

compound=COc1cc(N2CCC3(CCN(C(=O)c4cc[n+]([O-])cc4)CC3)C2=O)ccc1-c1cn[nH]c1 relation_qualifier== value_reported=5.96
compound=COc1cc(N2CCC3(CCN(C(=O)c4cc(C(C)C)n5ncnc(O)c45)CC3)C2=O)ccc1-c1cn[nH]c1 relation_qualifier== value_reported=8.68
compound="COc1ccc2c(N[C@H]3C[C@]4(C3)C[C@H](Oc3ncccc3C(N)=O)C4)ncnc2c1 (stereo partly shown)" relation_qualifier== value_reported=6.78
compound=CCc1nc(N2CC3(CCN(CC(C)(C)O)CC3)N(Cc3cccc(OC)c3)C2=O)ccc1-c1cn[nH]c1 relation_qualifier=> value_reported=8.52
compound=COc1cc(C(=O)NCc2cccc(NS(C)(=O)=O)c2)ccc1-c1cn[nH]c1 relation_qualifier== value_reported=8.20

====

pIC50: −log10 of the molar value.
Record: compiled pIC50 on ROCK2 (Homo sapiens) from multiple reports.
MEASURED ENDPOINT: pIC50

test_smiles=COc1cccc(CCC(=O)Nc2ccc3c(c2)[nH]c2cnccc23)c1 system="ROCK2 (Homo sapiens)" value_reported=7.29
test_smiles=COc1cccc(CN(CCO)C(=O)Nc2cc(-c3ccncc3)[nH]n2)c1 system="ROCK2 (Homo sapiens)" value_reported=7.41
test_smiles=CCOc1cc(C(=O)N[C@H](CO)c2c(F)cccc2F)ccc1-c1cn[nH]c1 system="ROCK2 (Homo sapiens)" value_reported=7.80
test_smiles=COc1cc(N2CCC3(CCN(C(=O)c4ccc(N5CCN(Cc6csnn6)CC5)cc4)CC3)C2=O)ccc1-c1cn[nH]c1 system="ROCK2 (Homo sapiens)" value_reported=8.82
test_smiles=Cn1c(C(=O)N2CC(F)(F)C2)cc2ccc(-c3nccc(Nc4ccc5[nH]ncc5c4)n3)cc21 system="ROCK2 (Homo sapiens)" value_reported=7.31

====

# literature pull: ROCK2 (Homo sapiens, UniProt O75116) IC50
MEASURED ENDPOINT: IC50

molecule="O=C1N(c2ccc(-c3cn[nH]c3)cn2)CCC12Cc1ccccc1N2 (centres unmarked)" system="ROCK2 (Homo sapiens, UniProt O75116)" value_reported="3 to 30 nM"
molecule="COc1cccc(C(CN)NC(=O)c2cc(-c3ccc4[nH]nc(F)c4c3)ccc2OC)c1 (centres unmarked)" system="ROCK2 (Homo sapiens, UniProt O75116)" value_reported="7 nM"
molecule=COc1nc(N2CCN(Cc3ccc(F)cc3C)C2=O)ccc1-c1cn[nH]c1 system="ROCK2 (Homo sapiens, UniProt O75116)" value_reported="20.1 to 200 nM"
molecule="CNCC(c1cccc(OC)c1)N1CCN(c2ccc(-c3cn[nH]c3)cc2)C1=O (single isomer, unassigned)" system="ROCK2 (Homo sapiens, UniProt O75116)" value_reported="20.1 to 200 nM"
molecule=COc1cccc(CN2C(=O)N(c3ccc(-c4cn[nH]c4)cc3)CC23CCN(S(C)(=O)=O)CC3)c1 system="ROCK2 (Homo sapiens, UniProt O75116)" value_reported="< 3 nM"
molecule="O=C(NC1CC2(C1)CC(c1n[nH]c(=O)c3ccccc13)C2)c1cnn2cc(-c3nccs3)ccc12 (centres unmarked)" system="ROCK2 (Homo sapiens, UniProt O75116)" value_reported="0.2 to 2 nM"
molecule=COc1cc(F)cc(CN2CCN(c3ccc(-c4cn[nH]c4)c(C(F)(F)F)c3)C2=O)c1 system="ROCK2 (Homo sapiens, UniProt O75116)" value_reported="20.1 to 200 nM"
molecule=O=C(NCC1CCC(F)(F)CC1)c1cccc([C@@H](CO)NC(=O)c2ccc(-c3ccncc3)cc2)c1 system="ROCK2 (Homo sapiens, UniProt O75116)" value_reported="1.2 nM"
